measured.on: T1, CD28 endogenously expressed on Jurkat/IL2 reporter cells (human, UniProt P10747 19-220)
T1 construct: also called Jurkats (CD28)
measurement.description: flow cytometry, Jurkat cells (CD28)
reported.property: MFI at 33.3 nM (MFI)
Enter your answer as a number in MFI; do not include the unit.

* variant CD80 IgV-Fc M47L (Fc fusion, not shown: small tags and cut ends; a dimerising Fc or GST) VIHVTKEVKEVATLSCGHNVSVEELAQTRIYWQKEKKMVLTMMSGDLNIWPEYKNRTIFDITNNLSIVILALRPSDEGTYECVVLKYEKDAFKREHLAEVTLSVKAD | 309

Reported MFI at 33.3 nM, binder variant CD80 IgV-Fc E35D/M47L/L85Q (Fc fusion, not shown: small tags and cut ends; a dimerising Fc or GST) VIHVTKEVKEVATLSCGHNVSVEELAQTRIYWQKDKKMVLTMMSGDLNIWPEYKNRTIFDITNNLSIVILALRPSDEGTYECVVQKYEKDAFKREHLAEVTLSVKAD : ____
46.3
